Test: Viability qHTS for spleen associated tyrosine kinase inhibitor (SYKi) drug resistant MV4-11 cells (AID 1963824); further: nearly all actives have a fitted effect of over 35% in size
Details: SYKi-resistant MV4-11 viability, CellTiter-Glo, 72 h; series mostly up to 45 µM
Inconclusive results are not listed. Calls of active or inactive are those of the source. The call rests on the fitted dose curve; in most records, active means well fitted cell-killing curve with a large enough effect; inconclusive means small, poorly fitted or top-dose-only effect, or effect the other way; inactive means no such curve, though single readings can be large or run the other way.
Hello, when you answer, please use one of the following outcomes: 1 = active, 0 = inactive

Here's what some known entries look like.
O=C(c1c2ccccc2cc2ccccc12)N1CCC(N2CCC[C@@H](C(=O)N3CCOCC3)C2)CC1; 1
CCOc1ccc(-c2cc(NC(=O)c3c(F)cccc3F)c(C(=O)O)s2)cc1; 0
COCC(=O)NC/C=C/c1ccc2ncnc(Nc3ccc(Oc4ccc(C)nc4)c(C)c3)c2c1; 1

Now let's try a different one.
# lookup: test call for Cn1nnc(-c2ccc(-c3ccc(N4C[C@H](COP(=O)(O)O)OC4=O)cc3F)cn2)n1
0

The measured values listed here are drawn from PubChem BioAssay (NCATS).
